Test system: RXF 393 renal
Test: NCI-60 one-dose screen, 48 h (100 = growth as untreated, 0 = no growth, -100 = all killed)
Settings: 10 µM unless noted
About 83,000 compounds went through this panel and 20% of them were active in at least one assay; those are over-represented in the sample as a whole.
Criterion: growth strictly under 10%. Met: T. Not met: F.

Completed entries (count: 5):
Compound: COc1ccc(-c2cc3c4c(nc5ccccc5c4c2)CC(c2cc(OC)c(OC)c(OC)c2)O3)cc1 (configuration not stated)
Classification: T
--
Compound: O=C(/C=C/c1sc(Cl)nc1Cl)c1ccccc1
Classification: F
--
Compound: Cn1cc(C(=O)c2nc(-c3cn(C)c4ccc(F)cc34)no2)c2cc(F)ccc21
Classification: F
--
Compound: COc1ccc(-c2nn(C(=O)c3cc(OC)c(OC)c(OC)c3)c3cc(N)ccc23)cc1
Classification: F
--
Compound: CC/C=C\C[C@@H](O)C/C=C1/C(=O)C=C[C@H]1C/C=C\CCCC(=O)OC
Classification: T

In: Dear colleague, could you confirm whether growth of `COc1ccc(CNC(=O)[C@H](O)[C@@H](N)Cc2ccccc2)cc1` falls below 10%? Thanks.
Out: F

In: Dear colleague, could you confirm whether growth of `O=C(O)c1cn(C2CC2)c2cc(N3CCN(C(=O)Nc4nc(-c5ccc(Cl)cc5)cs4)CC3)c(F)cc2c1=O` falls below 10%? Thanks.
Out: F

In: Dear colleague, could you confirm whether growth of `COc1ccc(-c2[nH]c3ccc(OC)cc3c2/C=C(\C#N)S(=O)(=O)c2ccccc2)cc1` falls below 10%? Thanks.
Out: T

In: Dear colleague, could you confirm whether growth of `CCc1ccc2nc(NC(=O)Cc3csc(NC(=O)c4ccco4)n3)sc2c1` falls below 10%? Thanks.
Out: F

In: Dear colleague, could you confirm whether growth of CC1(C)C2CC1C1(/C=N/NC(N)=S)C(C2)C(C#N)(C#N)C1(C#N)C#N (configuration not stated) falls below 10%? Thanks.
Out: F

In: Dear colleague, could you confirm whether growth of `O=c1ccc(N=Nc2ccccc2)ccc1Cl` falls below 10%? Thanks.
Out: T

In: Dear colleague, could you confirm whether growth of `COc1cc(C)c(Cc2cnc(N)nc2N)cc1OC` falls below 10%? Thanks.
Out: F

====

System: OVCAR-8 ovarian
Assay: NCI-60 one-dose screen, 48 h (100 = growth as untreated, 0 = no growth, -100 = all killed)
Details: 10 µM unless noted
This is part of a sample that, as a whole, favours compounds with a hit. Of some 83,000 tested, about 20% had one in any assay.
growth class ranges: class A (below 30%), class B (30% to below 80%), class C (80% or more)

Completed entries (count: 2):
Compound: COc1cc2oc(-c3ccc(O)cc3)cc(=O)c2c(O)c1-c1c(OC)cc(O)c2c(=O)cc(-c3ccc(O)cc3)oc12
Classification: class A

Compound: Cc1oc2nc[nH]c(=O)c2c1C(=O)/C=C/c1ccc(Br)cc1
Classification: class A

In: Band of `O=C(Nc1nc2ccc(F)cc2s1)c1cccnc1Nc1ccc(Cl)cc1Cl` ?
Out: class A

In: Band of `Cc1nc2ccccc2n1CC1C(=O)NC(=O)NC1=O` ?
Out: class C

In: Band of CCOC(=O)C1=C(N)Oc2c(sc3c(C)cccc23)C1c1ccc(Cl)cc1 (centres undefined) ?
Out: class B

In: Band of `O=C(CSc1nccc(Nc2ccc(S(=O)(=O)Nc3nccs3)cc2)n1)c1ccc(C(F)(F)F)cc1` ?
Out: class C

In: Band of `CCc1ccc2nc(NC(=O)Cc3csc(NC(=O)c4ccco4)n3)sc2c1` ?
Out: class B

In: Band of `CNCCCNc1nc2ccccc2c2c(=O)c3cc(F)ccc3sc12` ?
Out: class A
